Target: recombinant human DAGLα (Homo sapiens (Human), UniProt Q9Y4D2)
Sequence (Q9Y4D2 whole entry): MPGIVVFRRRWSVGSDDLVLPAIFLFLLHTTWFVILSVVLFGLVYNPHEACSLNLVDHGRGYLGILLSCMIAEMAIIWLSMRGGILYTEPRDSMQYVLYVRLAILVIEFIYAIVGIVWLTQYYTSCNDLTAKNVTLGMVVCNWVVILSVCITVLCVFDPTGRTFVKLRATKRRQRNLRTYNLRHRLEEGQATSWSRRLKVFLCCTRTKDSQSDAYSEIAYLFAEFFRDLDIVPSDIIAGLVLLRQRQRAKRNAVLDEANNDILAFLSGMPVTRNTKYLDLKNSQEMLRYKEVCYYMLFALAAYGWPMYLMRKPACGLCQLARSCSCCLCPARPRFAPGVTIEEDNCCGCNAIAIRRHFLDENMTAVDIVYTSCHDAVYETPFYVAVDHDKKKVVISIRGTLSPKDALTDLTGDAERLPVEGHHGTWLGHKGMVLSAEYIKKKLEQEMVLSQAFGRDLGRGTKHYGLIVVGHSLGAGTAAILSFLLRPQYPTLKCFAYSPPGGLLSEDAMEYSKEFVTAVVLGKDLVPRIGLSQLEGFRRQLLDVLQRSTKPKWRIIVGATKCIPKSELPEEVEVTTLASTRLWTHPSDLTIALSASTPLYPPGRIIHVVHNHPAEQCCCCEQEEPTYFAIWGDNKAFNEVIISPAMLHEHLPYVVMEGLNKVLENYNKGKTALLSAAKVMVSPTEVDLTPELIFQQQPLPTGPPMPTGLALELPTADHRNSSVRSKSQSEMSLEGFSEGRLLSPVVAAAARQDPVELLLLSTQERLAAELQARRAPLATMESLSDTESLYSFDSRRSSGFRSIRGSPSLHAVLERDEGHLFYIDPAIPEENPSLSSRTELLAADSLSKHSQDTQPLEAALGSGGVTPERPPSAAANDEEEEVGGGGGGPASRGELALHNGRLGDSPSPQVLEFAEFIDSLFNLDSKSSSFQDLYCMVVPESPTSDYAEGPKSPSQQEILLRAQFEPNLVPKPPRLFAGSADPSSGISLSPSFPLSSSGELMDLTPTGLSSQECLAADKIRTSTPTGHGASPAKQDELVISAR
Assay: SAG substrate assay (in vitro inhibition of 2-AG biosynthesis), membrane lysates from HEK293T cells
Details: n=4, read-out: IC50, DAGLα conversion of SAG to 2-AG
Readout Label: pIC50
For clarity, pIC50 is expressed as the negative log10 of concentration in mol/L.

State the recorded pIC50 for this entry: CC(C)(C)OC(=O)N1CCN(C(=O)n2cc(-c3ccc(OC(F)(F)F)cc3)nn2)C(Cc2ccccc2)C1 (centres unmarked) 8.22

Here is the next compound: C#CCO[C@@H]1CC[C@H](Cc2ccccc2)N(C(=O)n2ncc(C(O)(c3ccc(F)cc3)c3ccc(F)cc3)n2)C1 8.22
